target: HLA-B*51:01; test: IEDB peptide-MHC binding, purified MHC/competitive/radioactivity; filed as Kd, often an IC50 or EC50 that approximates it; bounds were set here for any values at or beyond the usual limits of such assays; conditions: source organism: Vaccinia virus WR
OBSERVED PROPERTY: pKd
Scale note: pKd = -log10(concentration in M).

Example results:
CONSTRUCT SEQUENCE: MPYNILDRII
pKd: 6.91
--
CONSTRUCT SEQUENCE: DPEKFNARM
pKd: 4.77
--
CONSTRUCT SEQUENCE: MPEKRNVVV
pKd: 6.90

Kindly review the next sequence as well.
Input line: Given the entry QIFEVYWYL , report its measured pKd.
Output line: 5.26
